Quick list: % Inhibition of Total Acid Output After 60 min. per entry.
- Test system: basal gastric acid secretion
- ASSAY_SUMMARY: Inhibition of gastric acid secretion in the acute gastric fistula rat
- Type: in vivo, Female Sprague-Dawley rats
- CONDITIONS: 10 mg./kg., intraduodenal, 60 min.
EXPERIMENTAL_READOUT: % Inhibition of Total Acid Output After 60 min. (%)

• CCCC[C@@H](O)[C@@H](O)/C=C/[C@H]1CCC(=O)[C@@H]1CCCCCCC(=O)O (relative stereo) = 0
• CCCCC(O)C(O)CCC1CCC(=O)C1CCCCCCC(=O)O (racemic) [all racemic erythro-9-oxo-15,16-dihydroxy-prostanoic acid] = 56
• CCCC[C@H](O)[C@H](O)/C=C/[C@H]1[C@H](O)CC(=O)[C@@H]1C/C=C\CCCC(=O)O (relative stereo) = 98
• CCCCC1OC(C)(C)OC1/C=C/C1C(OC2CCCCO2)CC(=O)C1C/C=C\CCCC(=O)O (mixture of isomers) = 55
• CCCCC(OC)C(O)/C=C/C1CCC(=O)C1CCCCCCC(=O)OCC (mixture of isomers) [all racemic erythro ethyl 9-oxo-15-hydroxy-16-methoxy-13-trans-prostenoate] = 43
• CCCC[C@@H](O)[C@@H](O)/C=C/[C@H]1[C@H](O)CC(=O)[C@@H]1C/C=C\CCCC(=O)O (relative stereo) = 100

* * *

Attribute: % Inhibition of Total Acid Output After 120 min.
- System: basal gastric acid secretion
- ASSAY_SUMMARY: Inhibition of gastric acid secretion in the acute gastric fistula rat
- Format: in vivo, Female Sprague-Dawley rats
- CONDITIONS: 10 mg./kg., intraduodenal, 120 min.
EXPERIMENTAL_READOUT: % Inhibition of Total Acid Output After 120 min. (%)

• CCCCC(OC)C(O)/C=C/C1CCC(=O)C1CCCCCCC(=O)OCC (mixture of isomers) [all racemic erythro ethyl 9-oxo-15-hydroxy-16-methoxy-13-trans-prostenoate] = 0
• CCCCC1OC(C)(C)OC1/C=C/C1C(OC2CCCCO2)CC(=O)C1C/C=C\CCCC(=O)O (mixture of isomers) = 29
• CCCC[C@@H](O)[C@@H](O)/C=C/[C@H]1CCC(=O)[C@@H]1CCCCCCC(=O)O (relative stereo) = 42
• CCCCC(O)C(O)CCC1CCC(=O)C1CCCCCCC(=O)O (racemic) [all racemic erythro-9-oxo-15,16-dihydroxy-prostanoic acid] = 46
• CCCC[C@@H](O)[C@@H](O)/C=C/[C@H]1[C@H](O)CC(=O)[C@@H]1C/C=C\CCCC(=O)O (relative stereo) = 82
• CCCC[C@H](O)[C@H](O)/C=C/[C@H]1[C@H](O)CC(=O)[C@@H]1C/C=C\CCCC(=O)O (relative stereo) = 55

* * *

- Test system: bronchospasms elicited by intravenous injections of histamine
- ASSAY_SUMMARY: Bronchodilator activity (Konzett assay) against histamine
- Type: in vivo, guinea pigs
- CONDITIONS: Cavia porcellus; three logarithmic cummulative intravenous doses; spasmogen histamine i.v.; read-out: Bronchodilator Activity (Konzett Assays) ED50, Spasmogenic Agent Histamine
EXPERIMENTAL_READOUT: ED50 (mg/kg)

* CCCCC(O)C(O)/C=C/C1CCC(=O)C1CCCCCCC(=O)O (mixture of isomers) [all racemic erythro-9-oxo-15,16-dihydroxy-13-trans-prostenoic acid] | 0.01
* CCCC[C@H](O)[C@H](O)/C=C/[C@H]1[C@H](O)CC(=O)[C@@H]1C/C=C\CCCC(=O)O (relative stereo) | 0.0098

* * *

// ED50 lookup, one value per entry
- Test system: bronchospasms elicited by intravenous injections of acetylcholine
- ASSAY_SUMMARY: Bronchodilator activity (Konzett assay) against acetylcholine
- Format: in vivo, guinea pigs
- CONDITIONS: Cavia porcellus; three logarithmic cummulative intravenous doses; spasmogen acetylcholine i.v.; read-out: Bronchodilator Activity (Konzett Assays) ED50, Spasmogenic Agent Acetylcholine
EXPERIMENTAL_READOUT: ED50

• CCCC[C@@H](O)[C@@H](O)/C=C/[C@H]1[C@H](O)CC(=O)[C@@H]1C/C=C\CCCC(=O)O (relative stereo) = 2.43 mg/kg
• CCCC[C@H](O)[C@H](O)/C=C/[C@H]1[C@H](O)CC(=O)[C@@H]1C/C=C\CCCC(=O)O (relative stereo) = 0.013 mg/kg
• CCCC[C@@H](OC)[C@@H](O)/C=C/[C@H]1CCC(=O)[C@@H]1CCCCCCC(=O)O (relative stereo) = > 3.2 mg/kg
• CCCC[C@H](OC)[C@H](O)/C=C/[C@H]1CCC(=O)[C@@H]1CCCCCCC(=O)O (relative stereo) = > 0.32 mg/kg
